Cited source for all entries: patent US20130230533A1

# EXPERIMENTAL_TARGET: T1, Monomeric monkey CD48-mmH (monkey)
# T1 construct: Soluble monkey CD48 with a myc-myc-hexa-histidine C-terminal tag; the whole entry is the construct; also called mfCD48-mmH
# T1 chain: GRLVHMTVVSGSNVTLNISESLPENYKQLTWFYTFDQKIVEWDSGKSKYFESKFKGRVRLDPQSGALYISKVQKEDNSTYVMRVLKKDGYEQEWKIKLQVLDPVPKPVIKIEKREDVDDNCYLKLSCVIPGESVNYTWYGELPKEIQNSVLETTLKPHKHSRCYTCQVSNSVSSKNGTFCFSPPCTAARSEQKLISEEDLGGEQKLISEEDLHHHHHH
# PROTOCOL_DESCRIPTION: SPR (Biacore), antibody captured by anti-Fc, CD48 in solution, 25 C
PROPERTY_NAME: koff (s⁻¹)
Answer with a number only, understood to be in s⁻¹.

Entry H4H1779P (antibody, human IgG4, V domains shown, Human IgG4 Fc (H4H)) VH: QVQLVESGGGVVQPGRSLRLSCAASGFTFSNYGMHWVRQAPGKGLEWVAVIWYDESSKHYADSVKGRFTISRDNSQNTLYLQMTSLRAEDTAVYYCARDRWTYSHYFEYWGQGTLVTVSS VL: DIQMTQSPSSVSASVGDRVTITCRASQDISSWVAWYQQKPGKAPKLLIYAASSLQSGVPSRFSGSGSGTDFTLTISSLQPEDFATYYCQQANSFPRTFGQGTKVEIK has what koff?
0.000113

Entry H4H1774P (antibody, human IgG4, V domains shown, Human IgG4 Fc (H4H)) VH: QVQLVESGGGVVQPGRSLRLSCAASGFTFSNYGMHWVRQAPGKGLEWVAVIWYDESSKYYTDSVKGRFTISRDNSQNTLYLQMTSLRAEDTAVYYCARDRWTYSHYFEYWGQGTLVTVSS VL: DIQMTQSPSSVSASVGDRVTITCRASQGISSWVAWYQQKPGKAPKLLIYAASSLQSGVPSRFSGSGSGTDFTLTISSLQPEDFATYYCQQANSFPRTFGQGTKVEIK has what koff?
7.63e-05

Entry H4H1772P (antibody, human IgG4, V domains shown, Human IgG4 Fc (H4H)) VH: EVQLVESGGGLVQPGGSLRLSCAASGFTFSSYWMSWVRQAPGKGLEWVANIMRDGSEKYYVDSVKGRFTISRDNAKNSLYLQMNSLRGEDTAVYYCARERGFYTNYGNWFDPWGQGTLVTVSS VL: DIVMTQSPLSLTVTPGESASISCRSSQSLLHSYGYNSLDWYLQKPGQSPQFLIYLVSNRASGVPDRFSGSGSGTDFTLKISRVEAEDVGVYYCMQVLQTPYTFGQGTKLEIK has what koff?
0.000508

Entry H4H1781P (antibody, human IgG4, V domains shown, Human IgG4 Fc (H4H)) VH: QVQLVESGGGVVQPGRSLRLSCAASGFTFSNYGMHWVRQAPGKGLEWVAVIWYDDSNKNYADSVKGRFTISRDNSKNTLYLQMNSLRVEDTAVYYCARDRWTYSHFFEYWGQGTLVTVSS VL: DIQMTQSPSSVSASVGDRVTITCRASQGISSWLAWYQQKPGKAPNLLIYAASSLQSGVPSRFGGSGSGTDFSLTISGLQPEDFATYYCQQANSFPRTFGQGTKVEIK has what koff?
7.8e-05

Entry H4H1707N (antibody, V domains shown, Human IgG4 Fc (H4H)) VH: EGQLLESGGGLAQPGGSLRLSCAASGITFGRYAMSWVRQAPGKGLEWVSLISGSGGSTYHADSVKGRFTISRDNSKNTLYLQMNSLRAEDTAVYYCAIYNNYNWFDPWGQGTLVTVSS VL: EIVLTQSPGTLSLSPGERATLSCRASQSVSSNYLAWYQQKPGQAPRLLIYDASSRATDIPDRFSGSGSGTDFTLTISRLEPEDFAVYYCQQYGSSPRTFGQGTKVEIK has what koff?
0.000362
